Assignment: determine reported IC50 for the given compounds.

Observed IC50 on Interleukin-1 receptor-associated kinase 4 (Homo sapiens), entry CCc1cccc(-c2cc(-c3nnc(C)o3)c3cnn(-c4cccc(CO)n4)c3c2)n1 , equals < 100 nM

Observed IC50 on Interleukin-1 receptor-associated kinase 4 (Homo sapiens), entry N#CCNC(=O)c1cc(N)cc(-c2ccc3cnn(-c4cccc(C(F)(F)F)n4)c3c2)c1 , equals < 100 nM

Reference source for all entries: ChEMBL document CHEMBL5726799
